- MEASURED TARGET: human neutrophil elastase (HNE) (Homo sapiens, UniProt P08246)
- Sequence (P08246 30-267): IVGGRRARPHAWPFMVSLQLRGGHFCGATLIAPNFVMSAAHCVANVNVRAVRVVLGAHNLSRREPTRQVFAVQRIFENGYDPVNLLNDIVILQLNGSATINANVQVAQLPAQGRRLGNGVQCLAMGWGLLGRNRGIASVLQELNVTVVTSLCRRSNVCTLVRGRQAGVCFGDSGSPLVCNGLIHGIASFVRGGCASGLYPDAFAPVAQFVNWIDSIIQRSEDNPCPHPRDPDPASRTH
- TEST DESCRIPTION: HNE Ki of CE compounds, tested as described in WO 96/16080
- Assay type: biochemical
- ASSAY CONTEXT: HNE Ki (nM)
VALUE TYPE: Ki (nM)
Numbers only, in nM.

input: Fill in the blank: the reported Ki of Cc1cccc(Cc2nnc(C(=O)[C@@H](NC(=O)CN3C(=O)CN=C(c4ccccn4)c4ccccc43)C(C)C)o2)c1 [CE2217] is ____.
output: 5.5

###

- MEASURED TARGET: human neutrophil elastase (HNE) (Homo sapiens, UniProt P08246)
- TEST DESCRIPTION: HNE Ki of CE compounds, tested as described in WO 96/16080
- Format: biochemical
- ASSAY CONTEXT: read-out: HNE Ki
VALUE TYPE: Ki (nM)
One number for each entry, in nM.

- MOLECULE: "COC(=O)CCC[C@H]1NC(=O)N(CC(=O)N[C@H](C(=O)c2nnc(Cc3cccc(C)c3)o2)C(C)C)C1=O"
  QUANTITATIVE READOUT: 13
- MOLECULE: "COc1cc2c(cc1OC)N(CC(=O)NC(C(=O)c1nnc(Cc3cccc(C)c3)o1)C(C)C)C(=O)C(N)N=C2C (stereo not shown)"
  QUANTITATIVE READOUT: 9.5
- MOLECULE: "Cc1cccc(Cc2nnc(C(=O)C(NC(=O)CN3C(=O)C(NC(=O)OCc4ccccc4)N=C(c4ccccc4Cl)c4cc(Cl)ccc43)C(C)C)o2)c1 (stereo not shown)"
  QUANTITATIVE READOUT: 2.6
- MOLECULE: "CC(C)OC(=O)N[C@H](C(=O)N1CCC[C@H]1C(=O)N[C@H](C(=O)c1noc(Cc2cccc(C(F)(F)F)c2)n1)C(C)C)C(C)C"
  QUANTITATIVE READOUT: 1.2
- MOLECULE: "CC(C)[C@H](NC(=O)Cn1c(-c2ccc(F)cc2)ccc(N)c1=O)C(=O)c1nnc(Cc2ccc3c(c2)OCO3)o1"
  QUANTITATIVE READOUT: 0.36

Give one value of Ki per listed molecule.
1. Cc1cccc(Cc2nnc(C(=O)[C@@H](NC(=O)Cn3c(=O)[nH]n(Cc4ccccc4)c3=O)C(C)C)o2)c1
2. COC(=O)N[C@H](C(=O)N1CCC[C@H]1C(=O)N[C@H](C(=O)c1noc(Cc2cccc(C(F)(F)F)c2)n1)C(C)C)C(C)C

output:
1: 52; 2: 0.92

###

- MEASURED TARGET: human neutrophil elastase (HNE) (Homo sapiens, UniProt P08246)
- TEST DESCRIPTION: HNE Ki of CE compounds, tested as described in WO 96/16080
- Type: biochemical
- ASSAY CONTEXT: read-out: HNE Ki
VALUE TYPE: Ki (nM)
Numbers only, in nM.

- MOLECULE: "Cc1cccc(Cc2nnc(C(=O)[C@@H](NC(=O)CN3C(=O)NC(c4ccccc4)(c4ccccc4)C3=O)C(C)C)o2)c1 [CE2252]"
  Ki / nM: 1.9
- MOLECULE: "Cc1ccc(C2=NCC(=O)N(CC(=O)N[C@H](C(=O)c3nnc(Cc4cccc(C)c4)o3)C(C)C)c3ccccc32)cc1 [CE2242]"
  Ki / nM: 27
- MOLECULE: "Cc1cccc(Cc2nnc(C(=O)[C@@H](NC(=O)Cn3c(-c4ccccc4)ncc(N)c3=O)C(C)C)o2)c1 [CE2260]"
  Ki / nM: 0.39

Give one value of Ki per listed molecule.
1. CC(C)[C@H](NC(=O)CN1C(=O)NC(c2ccccc2)C1=O)C(=O)c1noc(Cc2cccc(C(F)(F)F)c2)n1 (stereo partly shown) [CE2198]
2. Cc1cccc(Cc2nnc(C(=O)C(NC(=O)CN3C(=O)C[S+]([O-])C3Cc3ccccc3)C(C)C)o2)c1 (stereo not shown) [CE2136]
3. Cc1cccc(Cc2nnc(C(=O)[C@@H](NC(=O)CN3C(=O)CNC3=O)C(C)C)o2)c1 [CE2238]
4. Cc1cccc(Cc2nnc(C(=O)[C@@H](NC(=O)Cn3c(-c4cccs4)ncc(N)c3=O)C(C)C)o2)c1 [CE2262]

output:
[3.1, 104, 162, 0.42]

###

For each of the molecules below, state its pKi.
- MEASURED TARGET: human neutrophil elastase (HNE) (Homo sapiens)
- TEST DESCRIPTION: HNE Ki of CE compounds, tested as described in WO 96/16080
- Format: biochemical
- ASSAY CONTEXT: read-out: HNE Ki
Answers are plain numbers, as −log10 of the molar value.

# example entries with known answers
- MOLECULE: "CC(C)C(NC(=O)CN1C(=O)CN(C)C(=O)C1c1ccccc1)C(=O)c1noc(Cc2cccc(C(F)(F)F)c2)n1 (centres unmarked) [CE2084]"
  MEASURED TARGET: "human neutrophil elastase (HNE) (Homo sapiens)"
  pKi: 6.88
- MOLECULE: "Cc1cccc(Cc2nc(C(=O)C(NC(=O)CN3C(=O)C(N)N=C(c4ccccc4)c4ccccc43)C(C)C)no2)c1 (centres unmarked) [CE2221]"
  MEASURED TARGET: "human neutrophil elastase (HNE) (Homo sapiens)"
  pKi: 7.47
- MOLECULE: "Cc1cccc(Cc2nnc(C(=O)C(NC(=O)CN3C(=O)CN(C)C(=O)C3c3ccccc3)C(C)C)o2)c1 (centres unmarked) [CE2106]"
  MEASURED TARGET: "human neutrophil elastase (HNE) (Homo sapiens)"
  pKi: 7.39
- MOLECULE: "COC(=O)c1ccc(C=C2C(=O)N(C(C)=O)CC(=O)N2CC(=O)N[C@H](C(=O)c2nnc(Cc3cccc(C)c3)o2)C(C)C)cc1 [CE2112]"
  MEASURED TARGET: "human neutrophil elastase (HNE) (Homo sapiens)"
  pKi: 8.92

Next item in the queue.
input: Fill in the blank: the reported pKi of Cc1nnc(C(=O)[C@@H](NC(=O)[C@@H]2CCCN2C(=O)[C@@H](NC(=O)OCc2ccccc2)C(C)C)C(C)C)o1 [CE2074] is ____.
output: 9.00

###

- TEST DESCRIPTION: Blood level screening after oral dose
- Assay type: in vivo, Sprague-Dawley rats
- ASSAY CONTEXT: male, Sprague-Dawley, plasma; rat, oral gavage 10 mg/kg, 1 hr; read-out: Plasma Levels (μM) 1 hr
- Experimental: The inhibitors were dissolved or suspended in polyethylene glycol (PEG), PEG-400 or PEG:H2O:EtOH at a concentration of 10 mg/ml. Unfasted male Sprague-Dawley rats were given an oral dose of this solution by gavage. […] Depending on the inhibitor, one of four organics (ethyl acetate, toluene, isopropyl ether or methyl t-butyl ether) was used to extract the compound from the plasma. Inhibitor concentrations were measured by HPLC or LC/MS analysis.
Classification field: enter Condition met for concentration at 1 h values not below 1 µM, Condition not met for values below it.

- COMPOUND: "Cc1cccc(Cc2nnc(C(=O)[C@@H](NC(=O)CN(C(=O)[C@@H](NC(=O)OCc3ccccc3)C(C)C)c3ccccc3)C(C)C)o2)c1"
  ASSIGNED LABEL: "Condition not met"
- COMPOUND: "CC(C)[C@H](NC(=O)[C@@H]1CCCN1C(=O)[C@@H](NC(=O)OCc1ccccc1)C(C)C)C(=O)c1nnc(Cc2ccc3c(c2)OCO3)o1"
  ASSIGNED LABEL: "Condition not met"
- COMPOUND: "Cc1cccc(Cc2nnc(C(=O)C(NC(=O)CN3C(=O)NC(c4ccccc4)C3=O)C(C)C)o2)c1 (stereo not shown)"
  ASSIGNED LABEL: "Condition not met"

input: In plain terms: is recorded concentration at 1 h at least 1 µM for Cc1cccc(Cc2nnc(C(=O)C(NC(=O)CN3C(=O)C(N)N=C(c4ccc(Cl)cc4)c4ccccc43)C(C)C)o2)c1 (stereo not shown) ?
output: Condition met

input: In plain terms: is recorded concentration at 1 h at least 1 µM for Cc1cccc(Cc2nnc(C(=O)C(NC(=O)CN3C(=O)C(c4ccccc4)N(C)C3=O)C(C)C)o2)c1 (stereo not shown) ?
output: Condition met

input: In plain terms: is recorded concentration at 1 h at least 1 µM for Cc1cccc(Cc2nnc(C(=O)[C@@H](NC(=O)[C@@H]3CCCN3C(=O)[C@@H](NC(=O)OCc3ccccc3)C(C)C)C(C)C)o2)c1 ?
output: Condition not met

input: In plain terms: is recorded concentration at 1 h at least 1 µM for Cc1cccc(Cc2nnc(C(=O)[C@@H](NC(=O)CN3C(=O)CN=C(c4ccccn4)c4ccccc43)C(C)C)o2)c1 ?
output: Condition met

###

- MEASURED TARGET: human neutrophil elastase (HNE) (Homo sapiens)
- TEST DESCRIPTION: HNE Ki of CE compounds, tested as described in WO 96/16080
- Format: biochemical
- ASSAY CONTEXT: read-out: HNE Ki
pKi: −log10 of the molar value.
Classification field: enter rule met for pKi values not below 8, rule not met for values below it.

- TEST SMILES: "CC(C)[C@H](NC(=O)CN1C(=O)NC(c2ccccc2)(c2ccccc2)C1=O)C(=O)c1nnc(Cc2ccc3c(c2)OCO3)o1"
  ASSIGNED LABEL: "rule met"
- TEST SMILES: "Cc1cccc(Cc2nnc(C(=O)[C@@H](NC(=O)CN3C(=O)N[C@H](Cc4ccc(O)cc4)C3=O)C(C)C)o2)c1"
  ASSIGNED LABEL: "rule not met"
- TEST SMILES: "CC(C)[C@H](NC(=O)Cn1c(-c2ccc(F)cc2)ncc(NC(=O)OCc2ccccc2)c1=O)C(=O)c1noc(Cc2cccc(C(F)(F)F)c2)n1"
  ASSIGNED LABEL: "rule met"
- TEST SMILES: "Cc1cccc(Cc2nnc(C(=O)[C@@H](NC(=O)[C@@H]3CCCN3C(=O)[C@@H](NC(=O)OCc3ccncc3)C(C)C)C(C)C)o2)c1"
  ASSIGNED LABEL: "rule met"
- TEST SMILES: "CC(C)[C@H](NC(=O)[C@@H]1CCCN1C(=O)[C@@H](NC(=O)OCc1ccccc1)C(C)C)C(=O)c1noc(Cc2ccc3c(c2)OCO3)n1"
  ASSIGNED LABEL: "rule met"

For the next question, use this molecule.
input: In plain terms: is recorded pKi at least 8 for Cc1cccc(Cc2nnc(C(=O)[C@@H](NC(=O)Cn3c(=O)c(N)cc4ccccc43)C(C)C)o2)c1 ?
output: rule not met
